# assay.text: kinetic analysis, non-endpoint assay at 23° C.
# Assay type: biochemical
# conditions: standard error in parenthetical, NDB = activity not robust enough for kinetic characterization
endpoint.label: Vmax 2,4-D

molecule: MON-HT10: engineered oxygenase protein, amino acid sequence SEQ ID NO:43 (protein) MHAALTPLTNKYRFIDVQPLCGVLGAEITGVDLREPLDDSTWNEILDAFHTYQVIYFPGQAITNEQHIAFSRRFGPVDPVPLLKSIEGYPEVQMIRREANESGRILGDDWHTDSTFLDAPPAAVVMRAIEVPEYGGDTGFLSMYSAWDTLSDTMKATIEGLNVVHSATRVFGSLYQAQNWRFSNTSVKVMDVDAGDRETVHPLVVSHPVTGRRALYCNQVYCQRIEGMTDAESKCLLQFLYEHATKFDFTCRVRWKKDQVLVWDNLCTMHLAVPDYDGKFRYLTRTTVAGDKPSR
reported.result: NDB

Ref: patent US12723255B2
